// data source = patent US11021531

Let's look at some binders and their measured koff.
- STUDY TARGET: SARS-Cov-2 Receptor Binding Domain (RBD) protein (SARS-CoV-2, UniProt P0DTC2 319-541)
- TEST SUMMARY: SPR (Carterra LSA), scFv captured via anti-V5, RBD as analyte, 1:1 fit
Give the value in s⁻¹ but do not write s⁻¹ after it.

Below, 3 binders whose answers are already recorded.
BINDER	PROPERTY LABEL	MEASURED NUMBER
COVID19_P04_B09 (scFv, V domains shown) VH: EVQLVESGGGLVQPGGSLRLSCAASGFTFSNSDMNWVRQAPGKGLEWVSAISGTGDTTEYADSVKGRFTISRDNSKNTLYLQMNSLRAEDTAVYYCARDRSLMLDYWGQGTLVTVSS VL: EIVMTQSPATLSVSPGERATLSCRASQSVRSNLAWYQQKPGQAPRLLIYGASTRATGIPARFSGSGSGTEFTLTISSLQSEDFAVYYCQQRNNWPPTFGGGTKVEIKR	koff	0.00032
COVID19_P04_D08 (scFv, V domains shown) VH: EVQLVESGGGLVQPGGSLRLSCAASGFTFTNYAMTWVRQAPGKGLEWVSTMSNIGGDTYYADSVKGRFTISRDNSKNTLYLQMNSLRAEDTAVYYCARDRRVYLDYWGQGTLVTVSS VL: DIQMTQSPSSLSASVGDRVTITCRASQSISSYLNWYQQKPGKAPKLLIYAASSLQSGVPSRFSGSGSGTEFTLTISSLQSEDFAVYYCQQYGSSPLTFGGGTKVEIKR	koff	0.0113
COVID19_R01_A04 (scFv, V domains shown) VH: EVQLVESGGGLVQPGGSLRLSCAASGFTFSDHYMSWVRQAPGKGLEWVSAISTSGDSTFYADSVKGRFTISRDNSKNTLYLQMNNLRAEDTAVYYCARDRSYYLDYWGQGTLVTVSS VL: EIVMTQSPATLSVSPGERATLSCRASQSVRSNLAWYQQKPGQAPRLLIYGASTRATGIPARFSGSGSGTEFTLTISSLQSEDFAVYYCQQFGTSPPGLSFGGGTKVEIKR	koff	0.012

Find the recorded koff belonging to COVID19_P04_B03 (scFv, V domains shown) VH: EVQLVESGGGLVQPGGSLRLSCAASGFTFSNHYMSWVRQAPGKGLEWVSAISGSGGSTYYADSVKGRFTISRDNSKNTLYLQMNSLRAEDTAVYYCARDRSYYLDYWGQGTLVTVSS VL: EIVMTQSPATLSVSPGERATLSCRASQSIGTYLSWYQQKPGQAPRLLIYGASTRATGIPARFSGSGSGTEFTLTISSLQSEDFAVYYCQQSLSLPVTFGGGTKVEIKR and report it. 0.0141
